Test system: HOP-62 NSCLC
procedureText: NCI tumour cell line growth inhibition, 48 h; in the data active = GI50 below about 0.43 µM; inactive = the rest
I would appreciate it if you answered using one of these outcomes: active, inactive

## Task What classification did `O=C(c1ccc2ccccc2c1)c1c(C(F)(F)F)n([O-])c2ccc(C(F)(F)F)cc2[n+]1=O` end up with in this test?
## Result inactive

## Task Query: recorded result category for `CCc1c2c(nc3ccc(OCc4ccc(B(O)O)cc4)cc13)-c1cc3c(c(=O)n1C2)COC(=O)[C@]3(O)CC` in this test
## Result active

## Task I'd appreciate the recorded outcome for `CN1CCC(CNc2cc(C3(C(=O)Nc4cc(C(=O)Nc5ccc(Cl)c(C(F)(F)F)c5)ccc4F)CC3)ncn2)CC1` from this test.
## Result inactive

## Task Record lookup: outcome of this test for `COc1ccc2c(c1)C(=O)/C(=C/c1cccc(OCC(=O)c3ccccc3)c1)CC2` ?
## Result inactive

## Task Each molecule tested received a call. Report the one for `Nc1nc2ccc(-c3nc4ccc5[nH]ncc5c4c4c3CCC4)cc2s1` .
## Result active

## Task Write down the call the test reported for this molecule. Item: CCN1C(=O)N(CC)C2C1NN=c1s/c(=C\c3ccc(Cl)cc3Cl)c(=O)n12 (centres undefined)
## Result active

## Task Fill in: this test's call for `Nc1ncn([C@@H]2S[C@H](CO)[C@@H](O)[C@@H]2F)c(=O)n1` is ___
## Result inactive

## Task Entry CC1=C([Se]CC(OC(=O)CC[Se]c2ccccc2)C(=O)NC(C)(C)C)C(=O)c2ccccc2C1=O (centres undefined) : call = ?
## Result active

## Task # outcome recorded in this test, key = `O=C(/C=C(/C=C/c1ccc2[nH]ccc2c1)OB(F)F)/C=C/c1ccc2[nH]ccc2c1`
## Result inactive

From: PubChem BioAssay (NCI)
